Value source: the supplement of paper PMC8007513

Test system: Trichoderma virens ATCC 9645
assay_explanation: growth yield (OD600) with compound + IPBC relative to untreated control; higher = less growth inhibition
conditions_used: compound concentration: 100 uM; IPBC concentration: 200 ng/ml; 40 h
Counter-ions that a name gives are not always drawn. Screen size: about 1,300 compounds; about 130 (10%) showed an effect of 50% or more. Many of the other results were omitted from the sample, so strong results are more common in it than they were.
property_name: growth yield (%)
Give the value, in units of %, as a plain number.

-- ask Param item = COc1ccc2cc([C@H](C)C(=O)O)ccc2c1 [(S)-Naproxen] + CCCCNC(=O)OCC#CI [3-iodo-2-propynyl butylcarbamate (IPBC)] ; retrieve measured growth yield.
-- reply 61.3

-- ask Need growth yield, item Cc1c(NC(C)C)c(=O)n(-c2ccccc2)n1C [Isopyrin hydrochloride] + CCCCNC(=O)OCC#CI [3-iodo-2-propynyl butylcarbamate (IPBC)]
-- reply 87

-- ask growth yield lookup needed for Nc1ncn(C2OC(CO)C(O)C2O)c(=O)n1 (stereo not given) [Azacytidine-5] + CCCCNC(=O)OCC#CI [3-iodo-2-propynyl butylcarbamate (IPBC)] , thanks.
-- reply 67.2

-- ask // query growth yield value for entry NC(=O)c1cccnc1 [Nicotinamide] + CCCCNC(=O)OCC#CI [3-iodo-2-propynyl butylcarbamate (IPBC)]
-- reply 106

-- ask # lookup: growth yield of COc1cccc(OC)c1C(=O)N[C@@H]1C(=O)N2[C@@H]1SC(C)(C)[C@@H]2C(=O)O [Methicillin sodium] + CCCCNC(=O)OCC#CI [3-iodo-2-propynyl butylcarbamate (IPBC)]
-- reply 89.3
